We begin with a simple list: items and their reported self-cleavage.
B1: Hairpin Ribozyme (parent)
chain: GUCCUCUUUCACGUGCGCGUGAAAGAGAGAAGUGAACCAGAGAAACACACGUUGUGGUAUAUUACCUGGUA

Variants of: B1
Assay: self-cleavage, relative activity (ratio to wild type); higher = more cleavage; co-transcriptional
quantity: self-cleavage

INSERT INTO measurements (mutation_notation, result) VALUES
  ('A43C U53C', 0.163),
  ('C6A A47C', 0.221),
  ('G1U A43C', 0.169),
  ('G15A A49G', 0.527),
  ('U5A C38A', 0.142),
  ('G40A U62C', 0.141),
  ('G29C A36G', 0.18),
  ('U20G U33A', 0.158),
  ('A11U A71G', 0.977),
  ('A11U U53G', 0.69),
  ('G21U A47G', 0.208),
  ('C3U U8G', 0.245),
  ('C18A C66G', 0.113),
  ('U53A G69U', 0.26),
  ('C16A A31C', 0.0433),
  ('U9A G15C', 0.727),
  ('C66G U67C', 0.219),
  ('U7C A26C', 0.275),
  ('U33G G51U', 0.252),
  ('U5C U33A', 0.149),
  ('G25A A26G', 0.298),
  ('A45C U60C', 0.293),
  ('A24C A41C', 1.01),
  ('C37A A43G', 0.0981),
  ('C4G G40C', 0.164),
  ('G32A C46G', 0.103),
  ('G25U U52A', 0.55),
  ('A30U A31C', 0.288),
  ('U33A A61U', 0.167),
  ('U52C U63C', 0.226),
  ('G27U G68U', 0.157),
  ('U5C A41G', 0.569),
  ('A23G A44U', 0.0965),
  ('C6G A11U', 0.314),
  ('U9C A61G', 0.348),
  ('U14C G32C', 0.244),
  ('C50A C66G', 0.217),
  ('A49U A61C', 0.0823),
  ('G13C C37G', 0.183),
  ('A59U', 0.157),
  ('A41U A45G', 0.218),
  ('G32C A61G', 0.136),
  ('A24U A47U', 0.144),
  ('C6U A44C', 0.119),
  ('A22C A23G', 0.779),
  ('G42C U52C', 0.427),
  ('A26C A71U', 0.567),
  ('A28C U63C', 0.251),
  ('C12G G68C', 0.144),
  ('U14A C50U', 0.397),
  ('U9A C50U', 0.22),
  ('U20C U60A', 1.15),
  ('A36C U58G', 0.595),
  ('G32U C37A', 0.0811),
  ('G17C C48G', 0.165),
  ('G32U A64C', 0.258),
  ('C3G C4G', 0.244),
  ('G1A G69A', 0.164),
  ('U2A U58G', 0.161),
  ('G17A A30G', 0.0738),
  ('U20A A61U', 0.238),
  ('U9G G25U', 0.194),
  ('U7G A45G', 0.102),
  ('U14A A28C', 0.454),
  ('C18U G56U', 0.115),
  ('C6A C50G', 0.175),
  ('U8G U58A', 0.665),
  ('U9C C38U', 0.338),
  ('U8C A26C', 0.316),
  ('A39U U52G', 0.252),
  ('C16A C18G', 0.841),
  ('A22C G40C', 0.123),
  ('G21C G57A', 0.16),
  ('G27U A43C', 0.0898),
  ('C16G G51U', 0.803),
  ('U9G G19A', 0.548),
  ('A45G G68A', 0.122),
  ('C6A U62G', 0.0891),
  ('C3G A49G', 0.148),
  ('A64U', 0.181),
  ('C4A U60A', 0.197),
  ('C4G G51C', 0.207),
  ('U5C C10G', 0.373),
  ('C50A U67G', 0.118),
  ('G40U A47G', 0.18),
  ('U7A A49U', 0.16),
  ('C12G G19A', 0.808),
  ('G40A A45C', 0.0818),
  ('U9G G21U', 0.674),
  ('C4U U70C', 0.341),
  ('G21A G42C', 0.281);
